The measured values listed here are drawn from patent US10202361B2.

Tested on: morningglory (Ipomoea spp.)
Experiment: Test A pre-/postemergence greenhouse herbicide test
Assay type: in vivo
Details: Postemergence, 500 g ai/ha; 0 to 100 scale (0 no effect, 100 complete control), approx. 10 d
Observed property: Plant response rating, Morningglory

Cc1cc(=O)n(-c2ccccc2)nc1Oc1ccnc(C(F)(F)F)c1 100
Cc1cc(=O)n(-c2cccc(C(F)(F)F)c2)nc1Oc1ccnc(C(F)(F)F)c1 70
CCOc1cc(=O)n(-c2ccc(C(F)(F)F)cc2)nc1Cc1ccnc(C(F)(F)F)c1 70
O=c1c2c(c(Oc3ccnc(C(F)(F)F)c3)nn1-c1ccc(Cl)cc1)CCCC2 20
Cc1cc(Oc2ccnc(C(F)(F)F)c2)nn(-c2ccc(F)cc2)c1=O 60
CN(C)c1cc(=O)n(-c2ccc(F)cc2)nc1Cc1ccnc(C(F)(F)F)c1 100
CCCOc1cc(=O)n(-c2ccc(C(F)(F)F)cc2)nc1Cc1ccnc(C(F)(F)F)c1 30

Qu. Which value of Plant response rating, Morningglory has been reported for CCCc1cc(=O)n(-c2ccc(F)cc2)nc1Cc1ccnc(C(F)(F)F)c1 in the records?
Ans. 90

====

Test system: barnyardgrass (Echinochloa crus-galli)
Test: Test C pre-/postemergence greenhouse herbicide test
Assay type: in vivo
Details: Barnyardgrass; Preemergence; 250 g ai/ha
Observed property: Plant response rating

Cc1cc(=O)n(-c2ccc(C(F)(F)F)cc2)nc1Cc1ccnc(C(F)(F)F)c1 98
Cc1cc(=O)n(-c2ccc(F)cc2)nc1Cc1ccnc(C(F)(F)F)c1 100
COc1cc(=O)n(-c2ccc(F)cc2)nc1Cc1ccnc(C(F)(F)F)c1 100
COc1cc(=O)n(-c2ccc(C(F)(F)F)cc2)nc1Cc1ccnc(C(F)(F)F)c1 100

Next compound, please.
Qu. What value of measured Plant response rating is listed for CCOc1cc(=O)n(-c2ccc(F)cc2)nc1Cc1ccnc(C(F)(F)F)c1 ?
Ans. 98

====

Each entry below carries its recorded pest or weed control at 500 g/ha.
System: morningglory (Ipomoea spp.)
Test: Test A pre-/postemergence greenhouse herbicide test
Assay type: in vivo
Details: Ipomoea, pre-emergence, 240 h; Preemergence, 500 g ai/ha; 0 to 100 scale (0 no effect, 100 complete control), approx. 10 d; read-out: Plant response rating, Morningglory
Source text: […] Plants ranged in height from 2 to 10 cm and were in the one- to two-leaf stage for the postemergence treatment. Treated plants and untreated controls were maintained in a greenhouse for approximately 10 d, after which time all treated plants were compared to untreated controls and visually evaluated for injury. […]
# output: number + unit

Compound	pest or weed control at 500 g/ha
Cc1cc(=O)n(-c2ccc(C(F)(F)F)cc2)nc1Oc1ccnc(C(F)(F)F)c1 [Compound 5]	80%
Cc1cc(=O)n(-c2ccc(F)cc2)nc1Oc1ccnc(C(F)(F)F)c1 [Compound 14]	100%
CCOc1cc(=O)n(-c2ccc(F)cc2)nc1C(=O)c1ccnc(C(F)(F)F)c1 [Compound 22]	100%
Cc1cc(Oc2ccnc(C(F)(F)F)c2)nn(-c2ccc(C(F)(F)F)cc2)c1=O [Compound 6]	90%
COc1cc(=O)n(-c2ccc(C(F)(F)F)cc2)nc1Cc1ccnc(C(F)(F)F)c1 [Compound 16]	80%

Qu. What measured pest or weed control at 500 g/ha goes with Cc1cc(=O)n(-c2ccc(F)cc2)nc1Cn1ccc(C(F)(F)F)n1 [Compound 3] ?
Ans. 0%

Qu. Item under review: CCOc1cc(=O)n(-c2ccc(F)cc2)nc1C(O)c1ccnc(C(F)(F)F)c1 (centres unmarked) [Compound 23] . Reported pest or weed control at 500 g/ha?
Ans. 100%

Qu. I am curious: what pest or weed control at 500 g/ha value has been reported for CCOc1cc(=O)n(-c2ccc(F)cc2)nc1Cc1ccnc(C(F)(F)F)c1 [Compound 25] ?
Ans. 90%

====

Tested on: field violet (Viola arvensis)
Assay: Test D pre-/postemergence controlled growth environment herbicide test
Format: in vivo
Conditions: Postemergence, 31 g ai/ha, scale 0 to 100
Observed property: Plant response rating

Example entries and their recorded answers appear below.
Cc1cc(=O)n(-c2ccc(C(F)(F)F)cc2)nc1Cc1ccnc(C(F)(F)F)c1 50
COc1cc(=O)n(-c2ccc(F)cc2)nc1Cc1ccnc(C(F)(F)F)c1 60
Cc1cc(=O)n(-c2ccc(F)cc2)nc1Oc1ccnc(C(F)(F)F)c1 70

Now for a further compound.
Qu. // query Plant response rating value for entry Cc1cc(=O)n(-c2ccc(F)cc2)nc1Cc1ccnc(C(F)(F)F)c1
Ans. 20

====

System: kochia (Kochia scoparia)
Assay: Test D pre-/postemergence controlled growth environment herbicide test
Format: in vivo
Details: Preemergence, 125 g ai/ha, scale 0 to 100
Observed property: Plant response rating

Compound	Plant response rating
Cc1cc(=O)n(-c2ccc(F)cc2)nc1Oc1ccnc(C(F)(F)F)c1 [Compound 14]	70

Qu. What value of Plant response rating has been reported for the following compound? Cc1cc(=O)n(-c2ccc(C(F)(F)F)cc2)nc1Cc1ccnc(C(F)(F)F)c1 [Compound 2]
Ans. 100

Qu. For the compound COc1cc(=O)n(-c2ccc(F)cc2)nc1Cc1ccnc(C(F)(F)F)c1 [Compound 17] , what Plant response rating is on record?
Ans. 100

Qu. Item Cc1cc(=O)n(-c2ccc(F)cc2)nc1Cc1ccnc(C(F)(F)F)c1 [Compound 1] has what recorded Plant response rating?
Ans. 80

====

System: blackgrass (Alopecurus myosuroides)
Assay: Test C pre-/postemergence greenhouse herbicide test
Type: in vivo
Conditions: Alopecurus myosuroides, post-emergence; Blackgrass; Postemergence; 125 g ai/ha; read-out: Plant response rating
From the text: […]
Observed property: pest or weed control at 125 g/ha

Example results:
Cc1cc(Oc2ccnc(C(F)(F)F)c2)nn(-c2ccc(C(F)(F)F)cc2)c1=O 35%
Cc1cc(=O)n(-c2ccc(C(F)(F)F)cc2)nc1Cc1ccnc(C(F)(F)F)c1 10%
COc1cc(=O)n(-c2ccc(C(F)(F)F)cc2)nc1Cc1ccnc(C(F)(F)F)c1 5%
Cc1cc(=O)n(-c2ccc(F)cc2)nc1Cc1ccnc(C(F)(F)F)c1 5%
COc1cc(=O)n(-c2ccc(F)cc2)nc1Cc1ccnc(C(F)(F)F)c1 5%

Qu. I would be grateful if you could share the reported pest or weed control at 125 g/ha for Cc1cc(=O)n(-c2ccc(F)cc2)nc1Oc1ccnc(C(F)(F)F)c1 .
Ans. 5%

====

Tested on: foxtail, giant (giant foxtail, Setaria faberii)
Experiment: Test A pre-/postemergence greenhouse herbicide test
Assay type: in vivo
Conditions: Postemergence, 125 g ai/ha; 0 to 100 scale (0 no effect, 100 complete control), approx. 10 d
Assign class by Plant response rating, Foxtail, Giant: not lower than 20 means Criterion met; lower than 20 means Criterion not met.

The examples below pair each entry with its known result.
CN(C)c1cc(=O)n(-c2ccc(F)cc2)nc1Cc1ccnc(C(F)(F)F)c1 Criterion met
Cc1cc(Oc2cccc(C(F)(F)F)n2)nn(-c2ccc(F)cc2)c1=O Criterion not met
CN(C)c1cc(=O)n(-c2ccc(C(F)(F)F)cc2)nc1Cc1ccnc(C(F)(F)F)c1 Criterion met

Qu. Is it the case that Cc1cc(=O)n(-c2ccccc2)nc1Oc1ccnc(C(F)(F)F)c1 has Plant response rating, Foxtail, Giant reaching or exceeding 20?
Ans. Criterion met

====

The entries below are paired with their reported pest or weed control at 125 g/ha.
Test system: morningglory (Ipomoea spp.)
Test: Test A pre-/postemergence greenhouse herbicide test
Type: in vivo
Details: Ipomoea, post-emergence, 240 h; Postemergence, 125 g ai/ha; 0 to 100 scale (0 no effect, 100 complete control), approx. 10 d; read-out: Plant response rating, Morningglory
The answer is to be given in %; state only the numeric part.

# count of solved cases: 2
Compound	Target under test	pest or weed control at 125 g/ha (%)
Cc1cc(=O)n(-c2ccc(C(F)(F)F)cc2)nc1Oc1ccnc(C(F)(F)F)c1	morningglory (Ipomoea spp.)	60
CCOc1cc(=O)n(-c2ccc(F)cc2)nc1Cc1ccnc(C(F)(F)F)c1	morningglory (Ipomoea spp.)	40

Qu. Data request, read-out pest or weed control at 125 g/ha, for Cc1cc(=O)n(-c2ccc(F)cc2)nc1Cn1ccc(C(F)(F)F)n1
Ans. 60

====

Tested on: field poppy (Papaver rhoeas)
Assay: Test D pre-/postemergence controlled growth environment herbicide test
Type: in vivo
Details: Preemergence, 62 g ai/ha, scale 0 to 100
Observed property: Plant response rating
Answer using only a numeral; do not append any unit.

Past entries and their recorded results:
Compound	Plant response rating
COc1cc(=O)n(-c2ccc(F)cc2)nc1Cc1ccnc(C(F)(F)F)c1 [Compound 17]	100
Cc1cc(=O)n(-c2ccc(F)cc2)nc1Oc1ccnc(C(F)(F)F)c1 [Compound 14]	100
Cc1cc(=O)n(-c2ccc(F)cc2)nc1Cc1ccnc(C(F)(F)F)c1 [Compound 1]	95

Query compound follows.
Qu. Item under review: Cc1cc(=O)n(-c2ccc(C(F)(F)F)cc2)nc1Cc1ccnc(C(F)(F)F)c1 [Compound 2] . Reported Plant response rating?
Ans. 100
